Organism: Cavia porcellus
measurement.notes: Bronchodilator activity against serotonin-induced spasm in guinea pig
Format: functional
measurement.parameters: read-out: ID50 (the source's name)
The molecules listed here are annotated with their ED50.
property.label: ED50 (µmol/kg)

In [3]: df
Out[3]:
                                   molecule  property_label  qualifier_symbol  value_measured
0                 O=c1c2c(nc3n1CCC3)CCCCCC2            ED50                 =            57.1
1             Cc1cccn2c(=O)c3c(nc12)CCCCCC3            ED50                 =            14.3
2                Cc1ccc2nc3c(c(=O)n2c1)CCC3            ED50                 =            14.4
3     COc1ccccc1.Cn1c(=O)c2nc[nH]c2n(C)c1=O            ED50                 =              10
4  CC1CCCc2nc3ccccc3c(=O)n21 (configuration not stated)            ED50                 =            30.2
5         O=C(O)c1ccc2nc3n(c(=O)c2c1)CCCCC3            ED50                 >             100
6  CC1CCCc2nc3c(c(=O)n21)CCCC3 (configuration not stated)            ED50                 =              14

---

Organism: Cavia porcellus
measurement.notes: Bronchodilator activity against histamine-induced spasm in guinea pig
Assay type: functional
measurement.parameters: read-out: ID50 (the source's name)
Kindly apply the following: class 1 if ED50 is less than 20 µmol/kg, class 0 in every other case.

>>> print(df.to_string())
                                   compound    class
0  CC1CCCn2c1nc1c(c2=O)CCC1 (centres undefined)  class 1
1                  CCc1c(C)nc2cc(C)ccn2c1=O  class 0
2               Cl.O=c1c2c(nc3ccccn13)CCCC2  class 1
3  CCc1c(C)nc2n(c1=O)CCC(C)C2 (centres undefined)  class 0
4  CC1CCCc2nc3c(c(=O)n21)CCC3 (centres undefined)  class 1
5            O=c1c2cc3c(cc2nc2n1CCCCC2)OCO3  class 0
6                 O=c1c2c(nc3n1CCCCC3)CCCC2  class 1
7                 O=c1c2c(nc3n1CCCC3)CCCCC2  class 1
8                O=c1c2c(nc3ccccn13)CCCCCC2  class 0

---

The compounds listed here are annotated with their ED50.
Species on record: Cavia porcellus
measurement.notes: Bronchodilator activity against histamine-induced spasm in guinea pig
Type: functional
measurement.parameters: read-out: ID50 (the source's name)
property.label: ED50 (µmol/kg)

>>> df
                                    compound  endpoint_unit  qualifier_symbol  value_measured
 0               Cc1cccc2nc3c(c(=O)n12)CCCC3        µmol/kg                 =             9.7
 1  CC1CCc2nc3c(c(=O)n2C1)CCC3 (centres undefined)        µmol/kg                 =             7.2
 2                Cc1ccc2nc3c(c(=O)n2c1)CCC3        µmol/kg                 =            29.2
 3  CC1CCn2c(nc3c(c2=O)CCCC3)C1 (centres undefined)        µmol/kg                 =            25.7
 4          O=C(O)c1ccc2nc3n(c(=O)c2c1)CCCC3        µmol/kg                 >             100
 5                Cc1ccn2c(=O)c3c(nc2c1)CCC3        µmol/kg                 =            15.7
 6              Cc1ccc2c(=O)n3c(nc2c1)CCCCC3        µmol/kg                 =            25.6
 7                  CCc1c(C)nc2ccc(C)cn2c1=O        µmol/kg                 =            12.4
 8  CC1CCc2nc3ccccc3c(=O)n21 (centres undefined)        µmol/kg                 =            10.4
 9             Cc1cccn2c(=O)c3c(nc12)CCCCCC3        µmol/kg                 =            23.8
10                 O=c1nc2n(c3c1CCCC3)CCCCC2        µmol/kg                 >              32
11         O=C(O)c1ccc2c(=O)n3c(nc2c1)CCCCC3        µmol/kg                 >             100
12     COc1ccccc1.Cn1c(=O)c2nc[nH]c2n(C)c1=O        µmol/kg                 =              10
13                     O=c1c2ccccc2nc2n1CCC2        µmol/kg                 =            16.9
14         CCOC(=O)c1ccc2c(=O)n3c(nc2c1)CCC3        µmol/kg                 =            14.4
15                 S=c1c2c(nc3n1CCCCC3)CCCC2        µmol/kg                 >             320
16                  CCc1c(C)nc2c(C)cccn2c1=O        µmol/kg                 =             5.1
17                O=c1c2c(nc3n1CCCCC3)CCCCC2        µmol/kg                 =            33.8
18  CCOC(=O)c1c[n+](C)c2n(c1=O)C(C)CCC2 (centres undefined) [RIMAZOLIUM METILSULFATE]        µmol/kg                 =               8
19  CC1CCc2nc3c(c(=O)n2C1)CCCC3 (centres undefined)        µmol/kg                 =            23.6
20               Cc1cccn2c(=O)c3c(nc12)CCCC3        µmol/kg                 =               7
21                   O=c1c2c(nc3n1CCC3)CCCC2        µmol/kg                 =            24.1
22  CC1CCn2c(nc3c(c2=O)CCC3)C1 (centres undefined)        µmol/kg                 =            18.9
23              Cc1ccc2nc3n(c(=O)c2c1)CCCCC3        µmol/kg                 =            25.3
24                  CCc1c(C)nc2ccccn2c1=O.Cl        µmol/kg                 =             8.6
25                    O=c1c2c(nc3n1CCC3)CCC2        µmol/kg                 =            46.1
26                  O=c1c2c(nc3n1CCC3)CCCCC2        µmol/kg                 =            27.6
27                  O=c1c2ccccc2nc2n1CCCCCC2        µmol/kg                 =            61.8
28                   O=c1nc2n(c3c1CCCC3)CCC2        µmol/kg                 >             100

---

Species on record: Cavia porcellus
measurement.notes: Bronchodilator activity against serotonin-induced spasm in guinea pig
Format: functional
measurement.parameters: read-out: ID50 (the source's name)
property.label: ED50

>>> df
                 smiles_representation  property_label  value_measured
 0            O=c1nc2n(c3c1CCCCC3)CCC2            ED50    > 32 µmol/kg
 1  CCOC(=O)c1ccc2c(=O)n3c(nc2c1)CCCC3            ED50    > 32 µmol/kg
 2   O=C(O)c1ccc2c(=O)n3c(nc2c1)CCCCC3            ED50   > 100 µmol/kg
 3              O=c1nc2n(c3c1CCC3)CCC2            ED50   > 100 µmol/kg
 4   CCOC(=O)c1ccc2c(=O)n3c(nc2c1)CCC3            ED50    > 32 µmol/kg
 5     O=C(O)c1ccc2c(=O)n3c(nc2c1)CCC3            ED50   > 100 µmol/kg
 6    O=C(O)c1ccc2c(=O)n3c(nc2c1)CCCC3            ED50   > 100 µmol/kg
 7            S=c1c2c(nc3n1CCCCC3)CCC2            ED50   > 320 µmol/kg
 8     O=C(O)c1ccc2nc3n(c(=O)c2c1)CCC3            ED50   > 100 µmol/kg
 9            O=c1c2ccccc2nc2n1CCCCCC2            ED50   > 100 µmol/kg
10         O=c1c2c(nc3n1CCCCC3)CCCCCC2            ED50   > 100 µmol/kg
